# System under test: Cannabinoid receptor 2 (Homo sapiens, UniProt P34972)
# Sequence (P34972 whole entry): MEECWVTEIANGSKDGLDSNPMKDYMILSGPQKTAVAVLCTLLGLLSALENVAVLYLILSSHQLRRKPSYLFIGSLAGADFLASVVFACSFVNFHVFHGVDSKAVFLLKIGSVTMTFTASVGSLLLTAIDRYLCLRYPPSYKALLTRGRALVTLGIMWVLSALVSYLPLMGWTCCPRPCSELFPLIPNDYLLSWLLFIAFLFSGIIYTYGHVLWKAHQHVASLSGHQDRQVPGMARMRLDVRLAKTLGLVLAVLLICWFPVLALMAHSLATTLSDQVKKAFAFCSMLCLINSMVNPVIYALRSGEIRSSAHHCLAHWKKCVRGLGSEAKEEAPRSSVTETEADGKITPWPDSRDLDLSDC
# Test method notes: Effective concentration for inhibition of human Cannabinoid receptor 2-mediated adenylyl cyclase using African green monkey (COS-7) cells transfected with the cDNA of human CB2 receptor

# Given smiles, System under test, Unit string, EC50
measured = [
    ("CCCCCCC(C)(C)c1cc(OC(C)=O)c2c(c1)OC(C)(C)c1ccc(C(=O)O)cc1-2", "Cannabinoid receptor 2 (Homo sapiens, UniProt P34972)", "nM", 39.3),
    ("CCCCCCC(C)(C)c1cc(O)c2c(c1)OC(C)(C)c1ccc(C(=O)O)cc1-2", "Cannabinoid receptor 2 (Homo sapiens, UniProt P34972)", "nM", 5.4),
    ("CCCCCc1cc(O)c2c(c1)OC(C)(C)c1ccc(C)cc1-2", "Cannabinoid receptor 2 (Homo sapiens, UniProt P34972)", "nM", 261),
]

====

Quick list: EC50 per entry.
# System under test: Cannabinoid receptor 2 (Homo sapiens, UniProt P34972)
# Test method notes: Effective concentration for inhibition of human Cannabinoid receptor 2-mediated adenylyl cyclase using African green monkey (COS-7) cells transfected with the cDNA of human CB2 receptor
Measurement type: EC50 (nM)

# Compound, Result value
data = [
    ("CCCCCCC(C)(C)c1cc(O)c2c(c1)oc(=O)c1ccc(C)cc12", 4.6),
    ("CCCCCCC(C)(C)c1cc(O)c2c(c1)OC(C)(C)[C@@H]1CCC(C)=CC21 (stereo not given in full)", 1.01),
    ("CCCCCCC(C)(C)c1cc(O)c2c(c1)OC(C)(C)c1ccc(CO)cc1-2", 0.208),
    ("CCCCCCC(C)(C)c1cc(O)c2c(c1)OC(C)(C)[C@@H]1CC=C(C(=O)O)CC21 (stereo not given in full)", 116),
    ("CCCCCCC(C)(C)c1cc(O)c2c(c1)OC(C)(C)c1ccc(C)cc1-2", 0.79),
]

====

# System under test: Cannabinoid receptor 1 (Rattus norvegicus)
# Sequence (P20272 whole entry): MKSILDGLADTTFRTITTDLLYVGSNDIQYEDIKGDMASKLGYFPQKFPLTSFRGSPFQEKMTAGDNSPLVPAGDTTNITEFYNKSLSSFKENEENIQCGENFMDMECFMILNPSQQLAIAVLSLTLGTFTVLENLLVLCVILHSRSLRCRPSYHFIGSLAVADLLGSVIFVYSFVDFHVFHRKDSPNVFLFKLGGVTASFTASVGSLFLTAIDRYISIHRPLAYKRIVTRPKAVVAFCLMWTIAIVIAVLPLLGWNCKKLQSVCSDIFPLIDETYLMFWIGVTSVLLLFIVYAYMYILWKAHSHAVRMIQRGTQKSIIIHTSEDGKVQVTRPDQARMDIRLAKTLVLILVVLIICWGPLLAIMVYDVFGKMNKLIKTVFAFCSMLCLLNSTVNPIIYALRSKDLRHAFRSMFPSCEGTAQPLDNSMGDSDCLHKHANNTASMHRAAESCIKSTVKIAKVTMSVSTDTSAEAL
# Test method notes: Binding affinity of compound towards Cannabinoid receptor 1 in african green monkey COS-7 cells transfected with cDNA of rat CB1 receptor
# Type: cell-based

# Molecule, Ki, nM
data = [
    ("CCCCCc1cc(O)c2c(c1)OC(C)(C)c1ccc(C)cc1-2 [CANNABINOL]", 211),
]

====

Quick list: pKi per entry.
# System under test: UniProt:P20272
# Test method notes: Binding affinity for Cannabinoid receptor 1 using African green monkey (COS-7) cells transfected with the cDNA of […].
pKi: −log10 of the molar value.
Measurement type: pKi

# Molecule, Result value
rows = [
    ("CCCCCCC(C)(C)c1cc(O)c2c(c1)OC(C)(C)[C@@H]1CC=C(CO)CC21 (some centres undefined)", 9.72),
    ("CCCCCCC(C)(C)c1cc(O)c2c(c1)OC(C)(C)[C@@H]1CC=C(C(=O)O)CC21 (some centres undefined)", 6.32),
    ("CCCCCc1cc(O)c2c(c1)OC(C)(C)[C@@H]1CC=C(CO)CC21 (some centres undefined)", 7.48),
    ("CCCCCCC(C)(C)c1cc(O)c2c(c1)OC(C)(C)c1ccc(C(=O)O)cc1-2", 8.21),
]

====

# System under test: Cannabinoid receptor 2 (Homo sapiens, UniProt P34972)
# Test method notes: Inhibitory activity of 1 uM against human Cannabinoid receptor 2-mediated adenylyl cyclase using African green monkey (COS-7) cells transfected with the cDNA of human CB2 receptor
# Assay type: functional, cell-based
# inhibition >= 20% gives yes, anything below gives no

# Compound, System under test, Discrete label
records = [
    ("CCCCCCC(C)(C)c1cc(OC(C)=O)c2c(c1)OC(C)(C)[C@@H]1CC=C(C(=O)O)CC21 (stereo partly specified)", "Cannabinoid receptor 2 (Homo sapiens, UniProt P34972)", "yes"),
    ("CCCCCc1cc(OC(C)=O)c2c(c1)OC(C)(C)c1ccc(C(=O)O)cc1-2", "Cannabinoid receptor 2 (Homo sapiens, UniProt P34972)", "no"),
    ("CCCCCc1cc(O)c2c(c1)OC(C)(C)c1ccc(C(=O)O)cc1-2", "Cannabinoid receptor 2 (Homo sapiens, UniProt P34972)", "no"),
    ("CCCCCc1cc(O)c2c(c1)OC(C)(C)[C@@H]1CC=C(CO)CC21 (stereo partly specified)", "Cannabinoid receptor 2 (Homo sapiens, UniProt P34972)", "no"),
    ("CCCCCc1cc(O)c2c(c1)OC(C)(C)[C@@H]1CCC(C)=C[C@@H]21", "Cannabinoid receptor 2 (Homo sapiens, UniProt P34972)", "yes"),
]
